# Tested on: Echinochloa crus-galli
# Assay Procedure: Herbicidal activity against Echinochloa crus-galli (barnyard grass) assessed as growth inhibition at 100 ug/ml
# Type: functional
# Condition Set: read-out: GI
Class (by inhibition of growth at 100 µg/mL) -- lowest (below 30%), middle (30% to below 40%), highest (40% or more)

Compound	Target	Label Value
O=C(N/N=C\c1ccccc1)C1Cc2c([nH]c3ccccc23)CN1 (stereo not given)	Echinochloa crus-galli	lowest
O=C(N/N=C\c1ccc([N+](=O)[O-])cc1)c1cc2c(cn1)[nH]c1ccccc12	Echinochloa crus-galli	highest
COc1cc(/C=N\NC(=O)c2cc3c(cn2)[nH]c2ccccc23)cc(OC)c1OC	Echinochloa crus-galli	middle
COc1cc(/C=N\NC(=O)c2cc3c(cn2)[nH]c2ccccc23)ccc1O	Echinochloa crus-galli	middle
O=C(N/N=C\c1ccc(C(F)(F)F)cc1)c1cc2c([nH]c3ccccc32)c(-c2ccc(C(F)(F)F)cc2)n1	Echinochloa crus-galli	middle
Cc1nc(C(=O)N/N=C\c2ccccc2)cc2c1[nH]c1ccccc12	Echinochloa crus-galli	highest
O=C(N/N=C\c1ccccc1)c1cc2c(cn1)[nH]c1ccccc12	Echinochloa crus-galli	middle
O=C(N/N=C\c1ccc(C(F)(F)F)cc1)c1cc2c([nH]c3ccccc32)c(-c2ccccc2)n1	Echinochloa crus-galli	highest
COc1cc(OC)c(/C=N\NC(=O)c2cc3c(cn2)[nH]c2ccccc23)c(OC)c1	Echinochloa crus-galli	lowest
O=C(N/N=C\Nc1ccc(C(F)(F)F)cc1)c1cc2c(cn1)[nH]c1ccccc12	Echinochloa crus-galli	lowest
O=C(N/N=C\c1ccc(C(F)(F)F)cc1)c1cc2c([nH]c3ccccc32)c(-c2ccc(Cl)cc2)n1	Echinochloa crus-galli	highest
O=C(O)COc1ccc(Cl)cc1Cl [2,4-DICHLOROPHENOXYACETIC ACID]	Echinochloa crus-galli	highest
O=C(N/N=C\c1ccccc1)c1cc2c([nH]c3ccccc32)c(-c2ccc(C(F)(F)F)cc2)n1	Echinochloa crus-galli	middle
O=C(N/N=C\c1ccccc1)c1cc2c([nH]c3ccccc32)c(-c2ccc(Cl)cc2)n1	Echinochloa crus-galli	highest
O=C(N/N=C\Nc1ccc(C(F)(F)F)cc1)C1Cc2c([nH]c3ccccc23)CN1 (stereo not given)	Echinochloa crus-galli	lowest
O=C(NN=C(c1ccccc1)c1ccccc1)c1cc2c(cn1)[nH]c1ccccc12	Echinochloa crus-galli	lowest
COc1ccc2c(c1)[nH]c1c(C)nccc12 [HARMINE]	Echinochloa crus-galli	middle
O=C(N/N=C\c1ccc(Cl)cc1)c1cc2c(cn1)[nH]c1ccccc12	Echinochloa crus-galli	lowest
O=C(N/N=C\c1ccccc1)c1cc2c([nH]c3ccccc32)c(-c2ccccc2)n1	Echinochloa crus-galli	highest

Origin of values: ChEMBL document CHEMBL3046667
